Test system: L3.6p1 human pancreatic cancer cells
assay_info: Clonogenic growth of L3.6p1 pancreatic cancer cells in methylcellulose
Assay type: cell-based
measurement_conditions: 10 μM, 72 hours treatment, colonies counted after 10 days

compound	Normalized Colony # (% of control)
CC(C)CC[C@@H](O)[C@@H](C)[C@H]1CC[C@H]2[C@@H]3CC=C4C[C@@H](O)CC[C@]4(C)[C@H]3CC[C@]12C [Oxy 22R, 22R-hydroxycholesterol, reference compound]	59 % of control
CC(C)CCC[C@](C)(O)C1CCC2C3CC=C4CC(=O)CC[C@]4(C)C3CC[C@@]21C (stereo partly shown)	41 % of control
CC(C)CC[C@@H](O)[C@](C)(O)[C@H]1CC[C@H]2[C@@H]3CC=C4C[C@@H](O)CC[C@]4(C)[C@H]3CC[C@]12C	10 % of control
O=S(=O)(c1ccccc1)N(CC(F)(F)F)c1ccc(C(O)(C(F)(F)F)C(F)(F)F)cc1 [TO, TO901317, reference compound]	15 % of control
